Tested on: SW-620 colon
test protocol: NCI tumour cell line growth inhibition, 48 h; in the data active = GI50 below about 0.43 µM; inactive = the rest
Choose one outcome from this list and give only that: active, inactive

compound	class label
Cn1cc(C2=C(c3cccc(Br)c3)C(=O)NC2=O)c2ccccc21	inactive

Data request: Assay outcome for `COc1ccc(O)c(C(=O)c2ccc(C(=O)N[C@H]3CCCNC[C@@H]3NC(=O)c3ccncc3)cc2)c1F` : what was it?
Data returned: inactive

Data request: Assay outcome for CC(C)(S)C(N)C(=O)O (configuration not stated) : what was it?
Data returned: inactive

Data request: Assay outcome for `O=C(Nc1ccc(-n2ccc3c(NC(=O)c4ccccc4)nccc32)cc1)Nc1ccc(Cl)c(Cl)c1` : what was it?
Data returned: inactive

Data request: Assay outcome for `COc1ccc(-c2ccc(-c3ccc(C(=N)N)s3)s2)cc1` : what was it?
Data returned: active

Data request: Assay outcome for O=C(CSC1CCc2ccccc21)N/N=C/c1ccccc1O (configuration not stated) : what was it?
Data returned: inactive
